assayOverview: Cytotoxicity against human MCF7 cells assessed as reduction in cell viability after 5 days by WST1 assay
Assay type: cell-based
conditionContext: human, MCF7 cells
measuredAttribute: IC90 at 120 h

For orientation, consider the following solved cases.
[
  {
    "compound": "CC1(C(=O)NC2CCCCC2)CCCC(=O)N1/N=C/c1ccc([N+](=O)[O-])o1 (stereo not drawn)",
    "reportedMeasurement": "100 µM"
  },
  {
    "compound": "CC1(C(=O)NC2CCCCC2)CN(S(=O)(=O)c2ccccc2[N+](=O)[O-])CC(=O)N1/N=C/c1ccc([N+](=O)[O-])o1 (stereo not drawn)",
    "reportedMeasurement": "> 100 µM"
  }
]

Attention now shifts to the item below.
For this compound ( CC1(C(=O)NC2CCCCC2)CSCC(=O)N1/N=C/c1ccc([N+](=O)[O-])o1 (stereo not drawn) ), measured IC90 at 120 h is > 100 µM
